- Study System: UniProt:Q9NSU2
- Sequence (Q9NSU2 1-314): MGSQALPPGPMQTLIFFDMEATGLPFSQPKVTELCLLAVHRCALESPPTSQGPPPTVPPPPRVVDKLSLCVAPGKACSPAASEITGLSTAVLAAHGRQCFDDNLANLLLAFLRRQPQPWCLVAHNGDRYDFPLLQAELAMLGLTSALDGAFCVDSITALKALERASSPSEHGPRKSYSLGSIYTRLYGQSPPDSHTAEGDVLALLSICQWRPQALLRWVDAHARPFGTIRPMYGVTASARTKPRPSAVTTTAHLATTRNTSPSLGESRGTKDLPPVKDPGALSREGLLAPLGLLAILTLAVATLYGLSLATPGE
Measurement Kind: Kd (nM)
State the answer as a number, implicitly in nM.

Please look up its Kd: CC(c1nc(C(=O)Nc2cnoc2)c(O)c(=O)n1C)C(c1ccccc1)c1ccccc1 (single isomer, unassigned) [Example 1 Isomer 2]
3.8

Please look up its Kd: CC(c1nc(C(=O)Nc2cnoc2)c(O)c(=O)n1C)C(c1ccccc1)c1cc(F)ccc1C#N (single isomer, unassigned) [Example 6 Isomer 4]
0.194

Please look up its Kd: CC(c1nc(C(=O)Nc2cnoc2)c(O)c(=O)n1C)C(c1cc(F)cc(F)c1)c1ccccc1C#N (single isomer, unassigned) [Example 11 Isomer 3]
0.075

Please look up its Kd: CC(c1nc(C(=O)Nc2cnoc2)c(O)c(=O)n1C)C(c1ccccc1)c1ccccc1C#N (single isomer, unassigned) [Example 3 Isomer 4]
0.219

====

- Study System: human TREX1 (Homo sapiens)
- Construct: N-terminally His-Tev tagged full length human TREX1
- Assay Name: hTREX1 Biochemical Assay (fluorescence, dsDNA substrate degradation)
- Stated Conditions: full length human TREX1, 4 h pre-incubation, 18 h reaction at 25° C.
Answer each item with its documented IC50.

Please look up its IC50: CC(c1nc(C(=O)Nc2cnoc2)c(O)c(=O)n1C)C(c1ccccc1)c1ccc(F)cc1C#N (single isomer, unassigned) [Example 7 Isomer 3]
> 100 nM

Please look up its IC50: CC(c1nc(C(=O)Nc2cnoc2)c(O)c(=O)n1C)C(c1cc(F)cc(F)c1)c1ccccc1C#N (single isomer, unassigned) [Example 11 Isomer 4]
1 to 10 nM

Please look up its IC50: CC(c1nc(C(=O)Nc2cnoc2)c(O)c(=O)n1C)C(c1cc(F)cc(F)c1)c1ccccc1C#N (single isomer, unassigned) [Example 11 Isomer 1]
> 100 nM

Please look up its IC50: C[C@H](c1nc(C(=O)Nc2cnoc2)c(O)c(=O)n1C)[C@H](c1ccccc1)c1ccccc1Cl (single isomer, unassigned) [Example 2 Isomer 1]
1 to 10 nM

Please look up its IC50: CC(c1nc(C(=O)Nc2cnoc2)c(O)c(=O)n1C)C(c1ccccc1)c1cc(C(=O)N(C)C)ccc1C#N (single isomer, unassigned) [Example 17 Isomer 2]
> 100 nM

Please look up its IC50: CC(c1nc(C(=O)Nc2cnoc2)c(O)c(=O)n1C)C(c1ccccc1)c1ccccc1 (single isomer, unassigned) [Example 1 Isomer 1]
> 100 nM

====

Answer each item with its documented IC50.
- Study System: mouse TREX1 (Mus musculus, UniProt Q91XB0)
- Construct: N-terminally His-Tev tagged full length mouse TREX1
- Sequence (Q91XB0 1-314): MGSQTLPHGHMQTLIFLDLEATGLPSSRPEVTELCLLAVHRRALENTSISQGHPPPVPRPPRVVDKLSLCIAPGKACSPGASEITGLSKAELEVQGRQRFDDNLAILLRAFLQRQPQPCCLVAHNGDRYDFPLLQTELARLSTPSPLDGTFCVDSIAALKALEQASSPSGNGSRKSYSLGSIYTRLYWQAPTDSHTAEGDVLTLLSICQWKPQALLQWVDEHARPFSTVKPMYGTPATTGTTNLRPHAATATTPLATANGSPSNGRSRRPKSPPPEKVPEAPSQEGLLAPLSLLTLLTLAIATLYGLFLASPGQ
- Assay Name: mTREX1 Biochemical Assay (fluorescence, dsDNA substrate degradation)
- Stated Conditions: full length mouse TREX1, 4 h pre-incubation, 18 h reaction at 25° C.

Please look up its IC50: CC(c1nc(C(=O)Nc2cnoc2)c(O)c(=O)n1C)C(c1ccccc1Cl)c1ccccc1C#N (single isomer, unassigned) [Example 10 Isomer 1]
< 1 nM

Please look up its IC50: C[C@H](c1nc(C(=O)Nc2cnoc2)c(O)c(=O)n1C)[C@H](c1ccccc1)c1ccc(C(=O)N(C)C)cc1C#N (single isomer, unassigned) [Example 16 Isomer 1]
> 10 nM

Please look up its IC50: CC(c1nc(C(=O)Nc2cnoc2)c(O)c(=O)n1C)C(c1ccccc1)c1cc(Cl)ccc1C#N (single isomer, unassigned) [Example 8 Isomer 3]
> 10 nM

Please look up its IC50: CC(c1nc(C(=O)Nc2cnoc2)c(O)c(=O)[nH]1)C(c1ccccc1C#N)c1ccccc1C#N (single isomer, unassigned) [Example 5 Isomer 2]
> 10 nM

Please look up its IC50: C[C@H](c1nc(C(=O)Nc2cnoc2)c(O)c(=O)n1C)[C@H](c1ccccc1)c1ccccc1C(F)(F)F (single isomer, unassigned) [Example 14 Isomer 4]
> 10 nM

Please look up its IC50: CC(c1nc(C(=O)Nc2cnoc2)c(O)c(=O)n1C)C(c1cc(F)cc(F)c1)c1ccccc1C#N (single isomer, unassigned) [Example 11 Isomer 3]
< 1 nM

====

Answer each item with its documented residence time.
- Study System: human TREX1 (Homo sapiens, UniProt Q9NSU2)
- Construct: N-terminally His-Tev tagged full length human TREX1; made in house; host or cells: E. coli
- Assay Name: TREX1 kinetics assays (TR-FRET association and dissociation with biotinylated probe)
- Type: binding
- Stated Conditions: hTREX1, kinetic data
State the answer as a number, implicitly in min.

Please look up its residence time: C[C@H](c1nc(C(=O)Nc2cnoc2)c(O)c(=O)n1C)C(c1ccccc1Cl)c1ccccc1Cl (single isomer, unassigned) [Example 15 Isomer 1]
350

Please look up its residence time: CC(c1nc(C(=O)Nc2cnoc2)c(O)c(=O)n1C)C(c1ccccc1)c1ccc(Cl)cc1C#N (single isomer, unassigned) [Example 9 Isomer 4]
806

Please look up its residence time: CC(c1nc(C(=O)Nc2cnoc2)c(O)c(=O)n1C)C(c1ccccc1Cl)c1ccccc1C#N (single isomer, unassigned) [Example 10 Isomer 1]
529

Please look up its residence time: CC(c1nc(C(=O)Nc2cnoc2)c(O)c(=O)n1C)C(c1cc(F)cc(F)c1)c1ccccc1C#N (single isomer, unassigned) [Example 11 Isomer 3]
870

Please look up its residence time: CC(c1nc(C(=O)Nc2cnoc2)c(O)c(=O)n1C)C(c1ccccc1)c1cc(F)ccc1C#N (single isomer, unassigned) [Example 6 Isomer 4]
495

Please look up its residence time: C[C@H](c1nc(C(=O)Nc2cnoc2)c(O)c(=O)n1C)[C@H](c1ccccc1)c1ccccc1Cl (single isomer, unassigned) [Example 2 Isomer 3]
304

Please look up its residence time: CC(c1nc(C(=O)Nc2cnoc2)c(O)c(=O)n1C)C(c1ccccc1)c1ccccc1 (single isomer, unassigned) [Example 1 Isomer 2]
87

Please look up its residence time: CC(c1nc(C(=O)Nc2cnoc2)c(O)c(=O)n1C)C(c1ccccc1)c1cc(Cl)ccc1C#N (single isomer, unassigned) [Example 8 Isomer 2]
400

Please look up its residence time: CC(c1nc(C(=O)Nc2cnoc2)c(O)c(=O)n1C)C(c1ccccc1C#N)c1ccccc1C#N (single isomer, unassigned) [Example 4 Isomer 2]
435

Please look up its residence time: CC(c1nc(C(=O)Nc2cnoc2)c(O)c(=O)n1C)C(c1ccccc1)c1ccccc1C#N (single isomer, unassigned) [Example 3 Isomer 4]
463

====

- Study System: mouse TREX1 (Mus musculus, UniProt Q91XB0)
- Construct: N-terminally His-Tev tagged full length mouse TREX1
- Assay Name: mTREX1 Biochemical Assay (fluorescence, dsDNA substrate degradation)
- Stated Conditions: full length mouse TREX1, 4 h pre-incubation, 18 h reaction at 25° C.
Measurement Kind: IC50

Please look up its IC50: CC(c1nc(C(=O)Nc2cnoc2)c(O)c(=O)n1C)C(c1ccccc1)c1ccc(F)cc1C#N (single isomer, unassigned) [Example 7 Isomer 4]
1 to 10 nM

Please look up its IC50: CC(c1nc(C(=O)Nc2cnoc2)c(O)c(=O)n1C)C(c1ccccc1Cl)c1ccccc1C#N (single isomer, unassigned) [Example 10 Isomer 4]
1 to 10 nM

Please look up its IC50: CC(c1nc(C(=O)Nc2cnoc2)c(O)c(=O)[nH]1)C(c1ccccc1C#N)c1ccccc1C#N (single isomer, unassigned) [Example 5 Isomer 1]
1 to 10 nM

Please look up its IC50: C[C@H](c1nc(C(=O)Nc2cnoc2)c(O)c(=O)n1C)[C@H](c1ccccc1)c1ccc(C(=O)N(C)C)cc1C#N (single isomer, unassigned) [Example 16 Isomer 4]
< 1 nM

Please look up its IC50: Cn1c([C@H](C(c2ccccc2)c2ccccc2)C(F)(F)F)nc(C(=O)Nc2cnoc2)c(O)c1=O (single isomer, unassigned) [Example 20 Isomer 2]
> 10 nM

Please look up its IC50: C[C@H](c1nc(C(=O)Nc2cnoc2)c(O)c(=O)n1C)[C@H](c1ccccc1)c1ccccc1Cl (single isomer, unassigned) [Example 2 Isomer 3]
1 to 10 nM

Please look up its IC50: CC(c1nc(C(=O)Nc2cnoc2)c(O)c(=O)n1C)C(c1ccccc1)c1ccccc1 (single isomer, unassigned) [Example 1 Isomer 2]
> 10 nM

Please look up its IC50: CC(c1nc(C(=O)Nc2cnoc2)c(O)c(=O)n1C)C(c1ccccc1)c1ccc(F)cc1C#N (single isomer, unassigned) [Example 7 Isomer 3]
> 10 nM

Please look up its IC50: CC(c1nc(C(=O)Nc2cnoc2)c(O)c(=O)n1C)C(c1ccccc1)c1cc(F)ccc1C#N (single isomer, unassigned) [Example 6 Isomer 3]
> 10 nM

Please look up its IC50: CC(c1nc(C(=O)Nc2cnoc2)c(O)c(=O)n1C)C(c1ccccc1)c1ccc(Cl)cc1C#N (single isomer, unassigned) [Example 9 Isomer 4]
< 1 nM

Please look up its IC50: CC(c1nc(C(=O)Nc2cnoc2)c(O)c(=O)n1C)C(c1ccccc1)c1ccc(Cl)cc1C#N (single isomer, unassigned) [Example 9 Isomer 1]
> 10 nM

Please look up its IC50: CC(c1nc(C(=O)Nc2cnoc2)c(O)c(=O)n1C)C(c1ccccc1)c1ccc(F)cc1C#N (single isomer, unassigned) [Example 7 Isomer 2]
> 10 nM

Please look up its IC50: Cn1c([C@@H](CF)C(c2ccccc2)c2ccccc2)nc(C(=O)Nc2cnoc2)c(O)c1=O (single isomer, unassigned) [Example 18 Isomer 2]
> 10 nM

Please look up its IC50: CC(c1nc(C(=O)Nc2cnoc2)c(O)c(=O)n1C)C(c1ccc(F)cc1F)c1ccccc1C#N (single isomer, unassigned) [Example 13 Isomer 2]
1 to 10 nM

Please look up its IC50: C[C@H](c1nc(C(=O)Nc2cnoc2)c(O)c(=O)n1C)C(c1ccccc1Cl)c1ccccc1Cl (single isomer, unassigned) [Example 15 Isomer 2]
> 10 nM

Please look up its IC50: CC(c1nc(C(=O)Nc2cnoc2)c(O)c(=O)n1C)C(c1ccccc1C#N)c1ccccc1C#N (single isomer, unassigned) [Example 4 Isomer 2]
< 1 nM

Please look up its IC50: Cn1c([C@@H](CF)C(c2ccccc2)c2ccccc2)nc(C(=O)Nc2cnoc2)c(O)c1=O (single isomer, unassigned) [Example 18 Isomer 1]
> 10 nM

Please look up its IC50: CC(c1nc(C(=O)Nc2cnoc2)c(O)c(=O)n1C)C(c1ccccc1)c1ccc(Cl)cc1C#N (single isomer, unassigned) [Example 9 Isomer 2]
> 10 nM

Please look up its IC50: C[C@H](c1nc(C(=O)Nc2cnoc2)c(O)c(=O)n1C)[C@H](c1ccccc1)c1ccc(C(=O)N(C)C)cc1C#N (single isomer, unassigned) [Example 16 Isomer 2]
> 10 nM

Please look up its IC50: CC(c1nc(C(=O)Nc2cnoc2)c(O)c(=O)n1C)C(c1ccc(F)cc1F)c1ccccc1C#N (single isomer, unassigned) [Example 13 Isomer 4]
> 10 nM

Please look up its IC50: CC(c1nc(C(=O)Nc2cnoc2)c(O)c(=O)n1C)C(c1cc(F)cc(F)c1)c1ccccc1C#N (single isomer, unassigned) [Example 11 Isomer 4]
1 to 10 nM

Please look up its IC50: CC(c1nc(C(=O)Nc2cnoc2)c(O)c(=O)n1C)C(c1cc(F)cc(F)c1)c1ccccc1C#N (single isomer, unassigned) [Example 11 Isomer 1]
> 10 nM
